Would you mind telling me the reported pIC50 of each entry?
- assay target: full length active recombinant SYK enzyme (Homo sapiens, UniProt P43405)
- Construct: full length active recombinant SYK enzyme (Millipore, Calif.)
- assay procedure: Inhibition of Syk tyrosine phosphorylation activity (LANCE TR-FRET kinase assay)
- details: 1 nM active SYK enzyme, 550 nM SYK-substrate, 100 μM ATP, 1 hour at room temperature
pIC50: −log10 of the molar value.

Would you please look over these solved cases?
- CC[C@@H](Nc1nnc(C(N)=O)c(Nc2ccc3scnc3c2)n1)C(N)=O: 7.00 to 8.00
- Cn1cc2ccc(Nc3nc(N[C@@H]4CCCC[C@@H]4N)nnc3C(N)=O)cc2n1: 8.00 to 9.00
- NC(=O)c1nnc(N[C@@H]2CCOC[C@@H]2N)nc1Nc1cnc2cccnc2c1: 6.00 to 7.00
- NC(=O)c1nnc(N[C@@H]2CCCC[C@@H]2N)nc1Nc1cccc(-n2cccn2)c1: 8.00 to 9.00
- NC(=O)c1nnc(N[C@@H]2CCCC[C@@H]2N)nc1Nc1ccc(-c2ncccn2)cc1: 8.00 to 9.00
- CC[C@@H](Nc1nnc(C(N)=O)c(Nc2ccc(Cl)c(C)c2)n1)C(N)=O: 7.00 to 8.00

Could you report pIC50 for every entry in the following list?
1. Cn1cc(Nc2nc(N[C@@H]3CCOC[C@@H]3N)nnc2C(N)=O)cn1
2. CC(C)C[C@@H](Nc1nnc(C(N)=O)c(Nc2cccc(-c3ncccn3)c2)n1)C(N)=O

Response:
["6.00 to 7.00", "7.00 to 8.00"]
